# System: CCRF-CEM leukemia
# EXPERIMENT: NCI-60 one-dose screen, 48 h (100 = growth as untreated, 0 = no growth, -100 = all killed)
# ASSAY_CONDITIONS: 10 µM unless noted
This is part of a sample that, as a whole, favours compounds with a hit. Of some 83,000 tested, about 20% had one in any assay. Activity calls are given as the source filed them. How the source made its calls: active means growth percent below 10; inactive means the rest.
VALUE_TYPE: growth

1) Cc1ccc(Nc2nc(-c3ccc(F)cc3)c(C#N)c(=O)n2C)cc1    98.8% (inactive)

## Task What growth appears in the records for this molecule with CCRF-CEM leukemia? O=C(/C=C/C12c3ccccc3C(c3ccccc31)C1C(=O)NC(=O)C12)c1ccc(F)cc1 (configuration not stated)
## Result -0.929% (active)

## Task For CCRF-CEM leukemia, provide growth of COc1ccc(C2=CN3CC=CCC3CC2=O)cc1 (configuration not stated) please.
## Result 108% (inactive)

## Task Return growth measured with CCRF-CEM leukemia given this molecule: COc1ccc(C2=NN(C(C)=O)C(c3ccc(Oc4ccnc5cc(Cl)ccc45)c(OC)c3)C2)cc1 (configuration not stated)
## Result 85.7% (inactive)

## Task # returns recorded growth (system: CCRF-CEM leukemia) for CN(CCC#N)c1ccc(/C=C2\NC(=O)NC2=O)cc1
## Result 107% (inactive)

## Task API: value(readout= growth, system= CCRF-CEM leukemia, query= CCOC(=O)c1c(C)nn(CC(O)c2ccccc2)c1NC(=O)Nc1cccc(F)c1 (configuration not stated) )
## Result 89.3% (inactive)

## Task Find the measured growth: item c1ccc(CCc2ccccc2-c2cc(-c3ccccc3)on2)cc1 , target or system CCRF-CEM leukemia.
## Result 82.7% (inactive)

## Task For CCRF-CEM leukemia, provide growth of Cc1ccc(-c2nc(C#N)c(S(=O)(=O)NCCO)o2)cc1 please.
## Result -17.5% (active)

## Task Please tell me: growth of COc1cc(/C=C\c2cc(/C=C\c3ccc(O)c(OC)c3)n(C(=O)CNc3ccc(Cl)cc3)n2)ccc1O , system CCRF-CEM leukemia?
## Result 10% (inactive)

## Task Give the reported growth for O=C(Cn1cc(CN2C(=O)c3ccccc3S2(=O)=O)nn1)Nc1cccc(Cl)c1 (system: CCRF-CEM leukemia).
## Result 104% (inactive)

----------
# Tested on: OVCAR-4 ovarian
# EXPERIMENT: NCI-60 one-dose screen, 48 h (100 = growth as untreated, 0 = no growth, -100 = all killed)
# ASSAY_CONDITIONS: 10 µM unless noted
The panel holds about 83,000 compounds, 20% with a hit somewhere; the sample as a whole holds those more often.
// Not fulfilled strictly below 60% in growth; Fulfilled otherwise

1. COc1cc2oc(-c3cccc(NC(=O)c4ccc5c(c4)OCO5)c3)cc(=O)c2c(OC)c1OC    Not fulfilled
2. Cc1nc2ccccc2c(/C=C/c2ccc(C(F)(F)F)cc2)c1C(=O)/C=C/c1ccccc1    Not fulfilled
3. COc1cc2c(c(OC)c1OC)C(=O)N[C@@H]1[C@@H](O)[C@@H](O)[C@H](O)C[C@@H]21    Fulfilled

## Task Is the recorded value of growth equal to or greater than 60% for this compound? CC[C@H](Nc1nc(N)nc(C)c1C#N)c1nc2cccc(NCCCCCC(=O)NO)c2c(=O)n1-c1ccccc1
## Result Fulfilled

## Task Exam item: decide whether the reported growth for CN(C)c1ccc(/C=C/C(=O)c2ccccc2)cc1 is at least 60%.
## Result Fulfilled
